Experiment: Toxicity in SCID mouse
Type: organism-based
Details: in vivo
Observable: MTD

[[record]]
compound_structure_string = "COc1ccc(-c2[nH]ncc2-c2cc(OC)c(OC)c(OC)c2)cc1O"
observable = "MTD"
result = "> 162 mg/kg"

